Tested on: 991263-137-R1-J2-PDC complex spheroid viability
Assay: Anticancer human tumor 991263-137-R1-J2-PDC patient-derived colon adenocarcinoma cell line growth inhibition [POLQ]
Conditions: curve of first compound; second compound 1 µM
Experimental: Multicellular complex tumor spheroid response to Polymerase (POL) inhibitors (novobiocin, ART-558, RP6685) in combination with a variety of drugs and investigational agents in selected tumor cell lines The POL inhibitors (novobiocin, ART-558, and RP6685) were evaluated both individually and in combination with standard of care and investigational anticancer small molecules within a complex spheroid model of solid tumors. . […]
The following compounds are listed with their measured IC50 values.
Value expressed in nM; do not type the unit.

Please review the following examples before continuing.
CC1COCCN1c1cc(C2(O)CC3CCC(C2)O3)c2cnn(-c3ccn[nH]3)c2n1 (stereo not given) + Cc1cccc(N(C)C(=O)C2C(O)CCN2c2nc(C)cc(C(F)(F)F)c2C#N)c1; 3120
CC1COCCN1c1cc(C2(O)CC3CCC(C2)O3)c2cnn(-c3ccn[nH]3)c2n1 (stereo not given) + Nc1ccc(C#CCN(C(=O)Cc2ncc(C(F)(F)F)cc2C(F)(F)F)c2ccc(F)cc2)nn1; 1810

Now examine the next entry.
Query :: // lookup IC50 for CC1COCCN1c1cc(-c2ccnn2C)c2ccnc(-c3ccn[nH]3)c2n1 (stereo not given) + COC1C(OC(N)=O)C(O)C(Oc2ccc3c(O)c(NC(=O)c4ccc(O)c(CC=C(C)C)c4)c(=O)oc3c2C)OC1(C)C
Result :: 764

----------
Test system: 991263-137-R1-J2-PDC complex spheroid viability
Assay: Anticancer human tumor 991263-137-R1-J2-PDC cell line growth inhibition [POLQ];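 further: spheroids exposed to compounds for 7 days before readout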;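 on viability, T/C: 100% = DMSO vehicle control viability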
Settings: second compound 0.1 µM; first compound 3.16 µM; stronger effect = lower value
# strict inequality: viability, T/C < 50% yields Fulfilled, everything else yields Not fulfilled

Here's what some known entries look like.
CNCc1ccc(-c2[nH]c3cc(F)cc4c3c2CCNC4=O)cc1 + COC1C(OC(N)=O)C(O)C(Oc2ccc3c(O)c(NC(=O)c4ccc(O)c(CC=C(C)C)c4)c(=O)oc3c2C)OC1(C)C; Not fulfilled
C=CC(=O)N1CCN(c2nc(=O)n(-c3c(C)ccnc3C(C)C)c3nc(-c4c(O)cccc4F)c(F)cc23)C(C)C1 (stereo not given) + COC1C(OC(N)=O)C(O)C(Oc2ccc3c(O)c(NC(=O)c4ccc(O)c(CC=C(C)C)c4)c(=O)oc3c2C)OC1(C)C; Not fulfilled
CC1COCCN1c1cc(-c2ccnn2C)c2ccnc(-c3ccn[nH]3)c2n1 (stereo not given) + Nc1ccc(C#CCN(C(=O)Cc2ncc(C(F)(F)F)cc2C(F)(F)F)c2ccc(F)cc2)nn1; Fulfilled
Nc1ccn(C2OC(CO)C(O)C2(F)F)c(=O)n1 (stereo not given) + COC1C(OC(N)=O)C(O)C(Oc2ccc3c(O)c(NC(=O)c4ccc(O)c(CC=C(C)C)c4)c(=O)oc3c2C)OC1(C)C; Fulfilled

Query :: Consider the molecule O=C(c1cc(Cc2n[nH]c(=O)c3ccccc23)ccc1F)N1CCN(C(=O)C2CC2)CC1 + Nc1ccc(C#CCN(C(=O)Cc2ncc(C(F)(F)F)cc2C(F)(F)F)c2ccc(F)cc2)nn1 . Is its viability, T/C strictly less than 50%?
Result :: Not fulfilled

----------
Tested on: 991263-137-R1-J2-PDC complex spheroid viability
Test: Anticancer human tumor 991263-137-R1-J2-PDC cell line growth inhibition [POLQ];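 further: spheroids exposed to compounds for 7 days before readout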;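 on viability, T/C: 100% = DMSO vehicle control viability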
Conditions: second compound 0.316 µM; first compound 10 µM; stronger effect = lower value
# strict inequality: viability, T/C < 80% yields Y, everything else yields N

Query :: Consider the compound CC1COCCN1c1cc(C2(S(C)(=N)=O)CC2)nc(-c2ccnc3[nH]ccc23)n1 (stereo unspecified) + Nc1ccc(C#CCN(C(=O)Cc2ncc(C(F)(F)F)cc2C(F)(F)F)c2ccc(F)cc2)nn1 . Is its viability, T/C strictly less than 80%?
Result :: N
